- Tested on: DSS-induced IBD model animals
- Assay details: Actions of improving the clinical conditions in DSS-induced IBD model
- Assay type: in vivo, mice
- Test parameters: C57BL/6N mice, 3% DSS Day 0-4, drug Day 4-10, determined Day 11; Compound 100, prednisolone 5, 5-ASA 100 mg/kg/day; control 73.4
Below, each of the compounds is paired with its reported Change in length of the large intestine (Ratio to the no treatment group, %) value.
Report the figure in % without appending any unit label.

Exercise: Hi! What's the reported Change in length of the large intestine (Ratio to the no treatment group, %) for N=C1CCCN1Cc1[nH]c(=O)[nH]c(=O)c1Cl [Compound (I)] on DSS-induced IBD model animals?
Key: 88.6

====

- Test system: DSS-induced IBD model animals
- Assay details: Actions of improving the clinical conditions in DSS-induced IBD model
- Format: in vivo, mice
- Test parameters: C57BL/6N mice, 3% DSS Day 0-4, drug Day 4-10, determined Day 11; Compound 100, prednisolone 5, 5-ASA 100 mg/kg/day; control 73.4
Property measured: Change in length of the large intestine (Ratio to the no treatment group, %)
Report the figure in % without appending any unit label.

Cl.N=C1CCCN1Cc1[nH]c(=O)[nH]c(=O)c1Cl 88.6
C[C@]12C=CC(=O)C=C1CC[C@@H]1[C@@H]2[C@@H](O)C[C@@]2(C)[C@H]1CC[C@]2(O)C(=O)CO 93.2

Exercise: Hi! What's the reported Change in length of the large intestine (Ratio to the no treatment group, %) for `Nc1ccc(O)c(C(=O)O)c1` on DSS-induced IBD model animals?
Key: 80.3
